# TESTED ON: Tyrosyl-tRNA synthetase, putative (Trypanosoma cruzi (strain CL Brener))
# RUN DESCRIPTION: Trypanosoma cruzi tyrosyl tRNA synthetase (TcYRS) SOP
# Type: functional
# Set-up: scale not given: direction of the effect not stated beside the values
# MEASUREMENT CONTEXT: 30 µM
Below: a set of entries, each annotated with reported Percent Effect.
MEASURED METRIC: Percent Effect

* CC(C)CN(C)c1ccc(C(=O)N2CCCC2c2cnn(C)c2)cn1 (stereo unspecified) | 23.5%
* N#Cc1ccc(OCCNc2cccc(C(=O)N3CCOCC3)c2)cc1 | 13.6%
* O=C1NC(c2ccccc2)=N[C@@]12CC[C@@H]1CN(Cc3ccccc3)C[C@@H]12 | 27.5%
* CN(C)C(=O)CC1CC2(CCN(C(=O)N(C)C)CC2)Oc2ccccc21 (stereo unspecified) | 6.17%
* Cc1ccc(S(=O)(=O)Nc2ccc(=O)n(C)c2)cc1 | 13.9%
* Cc1cc(CN2CCN(C(=O)NC(C)Cn3ccnc3)CC2)no1 (stereo unspecified) | 7.32%

// data source = ChEMBL document CHEMBL3988442
